SYSTEM: VIM-2 (Escherichia coli)
METHOD DESCRIPTION: β-lactamase enzyme inhibition, VIM-2
CONDITION DESCRIPTION: substrate Nitrocefin 100 μM, 486 nm; read-out: Class B VIM-2 IC50
PARAMETER: IC50

Below, 5 compounds whose answers are already recorded.
COMPOUND	SYSTEM	IC50
CNCCN[C@H]1CC[C@H](C(CO)C(=O)N[C@H]2Cc3cccc(C(=O)O)c3OB2O)CC1 (some centres unmarked) [Example 64]	VIM-2 (Escherichia coli)	< 0.1 µM
CNCCN[C@H]1CC[C@H](CC(=O)N[C@H]2Cc3cccc(C(=O)O)c3OB2O)CC1 [Example 51]	VIM-2 (Escherichia coli)	< 0.1 µM
CCNCCN[C@H]1CC[C@H](CC(=O)N[C@H]2Cc3cccc(C(=O)O)c3OB2O)CC1 [Example 78]	VIM-2 (Escherichia coli)	< 0.1 µM
C[C@H](N)CN[C@H]1CC[C@H](CC(=O)N[C@H]2Cc3cccc(C(=O)O)c3OB2O)CC1 [Example 53]	VIM-2 (Escherichia coli)	< 0.1 µM
O=C(C[C@H]1CC[C@H](NCc2cnc[nH]2)CC1)N[C@H]1Cc2cccc(C(=O)O)c2OB1O [Example 70]	VIM-2 (Escherichia coli)	0.1 to 1 µM

Prompt: Item N=C(N)N1CCN([C@H]2CC[C@H](CC(=O)N[C@H]3Cc4cccc(C(=O)O)c4OB3O)CC2)CC1 [Example 24] has what recorded IC50?
Response: 1 to 10 µM

Prompt: Could you tell me which IC50 is on file for O=C(C[C@H]1CC[C@H](NCCNc2ncccn2)CC1)N[C@H]1Cc2cccc(C(=O)O)c2OB1O [Example 72] ?
Response: 0.1 to 1 µM

Prompt: Which IC50 value belongs to O=C(C[C@H]1CC[C@H](N(Cc2ncc[nH]2)Cc2ncc[nH]2)CC1)N[C@H]1Cc2cccc(C(=O)O)c2OB1O [Example 69] ?
Response: < 0.1 µM

Origin of values: patent US8912169B2
